tested on: 855422-203-R-J1-PDC complex spheroids, viability; assay: Anticancer human tumor 855422-203-R-J1-PDC patient-derived bladder carcinoma cell line growth inhibition [CLK]; conditions: second compound 3.16 µM; first compound 0.00316 µM; active compounds read low;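 further: spheroids exposed to drugs for seven days before readout; 100% = DMSO vehicle control wells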
A collection of molecules and their measured viability, T/C

molecule: CCN1CCN(Cc2ccc(Nc3ncc(F)c(-c4cc(F)c5nc(C)n(C(C)C)c5c4)n3)nc2)CC1 + CN1CCN(c2cc(C(=O)Nc3cc4cc(-c5cnn(C)c5)ccc4cn3)ccn2)CC1
measure-unit: %
viability, T/C: 0.55
--
molecule: Cn1ncnc1[C@H]1c2n[nH]c(=O)c3cc(F)cc(c23)N[C@@H]1c1ccc(F)cc1 + CN1CCN(c2cc(C(=O)Nc3cc4cc(-c5cnn(C)c5)ccc4cn3)ccn2)CC1
measure-unit: %
viability, T/C: 0.41
--
molecule: CCc1c2c(nc3ccc(O)cc13)-c1cc3c(c(=O)n1C2)COC(=O)[C@]3(O)CC + CN1CCN(c2cc(C(=O)Nc3cc4cc(-c5cnn(C)c5)ccc4cn3)ccn2)CC1
measure-unit: %
viability, T/C: 0.33
--
molecule: Cn1ncnc1[C@H]1c2n[nH]c(=O)c3cc(F)cc(c23)N[C@@H]1c1ccc(F)cc1 + CNC(=O)c1ccc(Nc2nc(OC3CCCC3)c3c(-c4ccc5nc(C)oc5c4)c[nH]c3n2)c(OC)c1
measure-unit: %
viability, T/C: 22.1
--
molecule: COc1c(OCCCN2CCOCC2)ccc2c3n(c(=NC(=O)c4cnc(N)nc4)nc12)CCN3 + CNC(=O)c1ccc(Nc2nc(OC3CCCC3)c3c(-c4ccc5nc(C)oc5c4)c[nH]c3n2)c(OC)c1
measure-unit: %
viability, T/C: 18.8

# credit: PubChem BioAssay AID2060609
